test: label from the status in PepcDB records
property name: protein production

input sequence	property name	value
IDIEAMLGSVFDAMEPELDFTGEARNMDEARGQVRSFRSLEVPRVLHASPRVLVQSLADGKSVRHVDRAHFTDDERVEIGKDLLRFMYHGYFVHRFFHADPHAGNVFAAPGGPATLIDWGMVGRLD	protein production	failed
MIGYVLNGEHEEIPYGELMALLEIFNYNGSVERLKRYVITEDSPAKDIVKRSGYIDEGHRIIFRYNLEEKSVDLVDKIVNDFINSFKDFVANIDYPDIDESKSYAVRVLKLHKDEFTKSIDSLRIEKEIGGIIKLKTNAKVNLTKPDILVRVVILENTFFISNVLEMRDREYFQKNRPHLRKYFHPGCMLPKLARAMVNLARVKEGDIVLDPFCGTGGFLIEAGLIGAKLIGCDIDWRMASGTLINLEEYNLLDKVIKVKRLDAKYVKEFLNELNIEKVDAIVTDPPYGISTAKKGEIEKILETLPEVIKDNGYFVFAYPKKIELDMELEGLYKVYIHKGLIRHIHVYKKI	protein production	failed

* * *

assay: label from the status in PepcDB records
property name: protein production

A selection of reference data follows.
input sequence	value
MVNPIATGILVLAALYFARSILMPLAFSLFVIALAWPIQMALQRRIPRLAALLITLLLVVLVIVIVGSAIVWGLGELSQWLFYNTGRLQAIYASWTDWLEGHGIAIVSPLGELFSISRLVGLTHSLVTRLNSVAGFAVLTFIFVMLGLLEAEDLQRRLRSSLAQPQGEMLLHIGREIAGKIRRFMVVRSLACILTGLVVWAFTLVAGLELASAWAAIAFALNYIPFIGPLMATIFPTLFAIAQSGSWQLALIVFVGLNVIQFAIGSYLEPFLTGASLAISPFAVMFAVFFWSFMWGVPGAFIGVPILIVVVTWCAHEQSTRWIATLLSGGRQST	failed
HPKLVSSTPAEGSEGAAPAKIELHFSENLVTQFSGAKLVMTAMPGMEHSPMAVKAAVSGGGDPKTMVITPASPLTAGTYKVDWRAVSSDTHPITGSVTFK	not failed
MPFSWLKPIDYARIFVGWASIFIIPLITLPSIIELALIVAVILFCAFGVVKMAERLAHILGDPFGSLILTLSIVIIEVILICAVMLGPADSTTAGRDSVMAVSMIIMGLVVGLCLLIGGLRHGSMPHNGVGTPTYLVLIATFSVIAFAVPAFRGEYSTGQALVISTLTAVVYGFFLFRQMGAQAGEFQEVEVAEKADDAAKWEVPFRGLILIITVLPIVLLSHDMATVMDEVLASLGAPVAMAGLIIATIVFLPETITSLKAAWTGEIQRVSNLAHGAQVSTVGLTIPAVLVIGVITGQDVVLGETPINLLLLGTTIAVTAIAFSSKKVSAVHGSVLLMLFGVYMMSMFA	failed
MIKLLLLDVDGTLTDGSLYFDENFHEIKAFNVKDGLGMTLWQKLGKKIAIITGRTSIMVKKRMESLGVQFVFMGVENKNTVIERLKKDLQLSAQEIACVGDDYNDLGMFKACALSFAPFDAHPLLKSKAYKVLQNSGGKGAVREAIDYLLTLEGLQDEALKLYL	failed

Look at this sequence and give its reported protein production. MLSKRDAILKAAVEVFGKKGYDRATTDEIAEKAGVAKGLIFHYFKNKEELYYQAYMSVTEKLQKEFENFLMKNRNRDIFDFMERWIEKKLEYSASHPEEADFLITLVSVDEGLRKRILLDLEKSQRVFFDFVREKLKDLDLAEDVTEEIALKFLMWFFSGFEEVYLRTYQGKPELLKRDMNTLVEEVKVMLRILKKGMTK
not failed

Try this sequence next: MGSSSRQGWRSVFKDVTQKWDVMTVEEQEKELSLLEEWTERVLEEWSDMHEACMTLRERQQQSSVLEKYPPYVSKGTALYDLEMFPEAAMQFDRELKMQPHMHHPLLHLYAIFANLYGGQRERCKEHCVYVLTTSVDRLVRYFTYMALGTLYMQEGEVEEALTSYEHASKLTFHPDVMYNLGMAYFLQHQYALAIPCFMEVIKDGEEDVDALYFLGCALCESGYVEEGCAKWLEAIQLCPPEKVLLTIGAKLEWYGFHQAAVHCFEQLLQSRQLRHLAKHGIAWNLALQDEREKAIHMLKELIAVPQIREDVRLSIEFLAHCWNDGNLRQLAASIERG
failed

Ref: a protein production outcome set (Wang et al. 2014)
